molecular target: BTK (Homo sapiens); experiment: biochemical; conditions: read-out: BTK inhibition (%), 0.75 uM BTK, […] probe 3l, 15 min preincubation
Sequence (Q06187 402-655 limits assumed): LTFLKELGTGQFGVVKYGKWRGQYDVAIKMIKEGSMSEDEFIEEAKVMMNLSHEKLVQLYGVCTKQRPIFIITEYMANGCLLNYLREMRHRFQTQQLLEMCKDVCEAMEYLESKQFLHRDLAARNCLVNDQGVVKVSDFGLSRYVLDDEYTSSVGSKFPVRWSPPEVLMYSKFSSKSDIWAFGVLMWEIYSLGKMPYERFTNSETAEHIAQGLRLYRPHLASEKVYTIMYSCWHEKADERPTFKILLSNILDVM
Outcome label depends on inhibition at 10 µM relative to 2%: at/above gives y, below gives n.

// inclusive: inhibition at 10 µM at least 2%? input: C=C1CCC[C@]2(C)C[C@]3(O)OC(=O)C(C)=C3C[C@@H]12 [PCM-0216544]
y

Does the reported inhibition at 10 µM for CCN(CC)C(=O)[C@]1(c2ccccc2)C[C@@H]1CN [PCM-0095594] fall at or above the 2% mark?
n

Decide: inhibition at 10 µM of O=C1Cc2ccccc2N1 [PCM-0215133] >= 2%?
n

Threshold query (inhibition at 10 µM >= 2%) on CCN(CC)Cc1cc(Nc2ccnc3cc(Cl)ccc23)ccc1O [PCM-0085909]
y

Hi team, for CN(C)CC/C=C1/c2ccccc2Sc2ccc(Cl)cc21 [PCM-0095101] , is the recorded inhibition at 10 µM at or above 2%?
y

# check: inhibition at 10 µM of C[C@H]1CCC/C=C/[C@@H]2C[C@H](O)C[C@H]2[C@H](O)/C=C/C(=O)O1 [PCM-0095573] is greater than or equal to 2%
n
